Origin of measurements: patent US6589949B1

Readout Name: melting point (°C)

compound=O=C(N1CCCC1)n1oc(=O)c2ccccc21 recorded_result=99
compound=O=C(N1CCOCC1)n1oc(=O)c2ccc(Cl)cc21 recorded_result=116
compound=CN(C)C(=O)n1oc(=O)c2ccccc21 recorded_result=93

1. Cc1ccc2c(c1)c(=O)on2C(=O)N1CCCC1
2. O=C(N1CC2CCC2C1)n1oc(=O)c2cc(Cl)ccc21 (stereo not shown)
3. CN(CCCl)C(=O)n1oc(=O)c2cc(Cl)ccc21
Ask: Could you please order the items by melting point, going from the lowest number to the highest? Sort the labels as requested; that list is your answer.
Result: 3, 2, 1
